experimental-protocol: Antagonist activity at CCR2 in human PBMC assessed as MCP1-induced chemotaxis
pIC50: −log10 of the molar value.
measured-parameter: pIC50

INSERT INTO results (compound, readout_value) VALUES
  ('CCCN1CCC(NCc2ccc(SC)cc2)C(NC(=O)CNC(=O)c2cc(C(F)(F)F)ccc2NC(=O)NC)C1 (racemic)', 8.10),
  ('CCCCN1CCC(NC(=O)c2ccc(SC)cc2)C(NC(=O)CNC(=O)c2cc(C(F)(F)F)ccc2N)C1 (racemic)', 7.76),
  ('CCCN1CCC(NCc2ccc(SC)cc2)C(NC(=O)CNC(=O)c2cc(C(F)(F)F)ccc2N)C1 (racemic)', 8.27),
  ('CSc1ccc(CNC2CCN(C)CC2NC(=O)CNC(=O)c2cc(C(F)(F)F)ccc2N)cc1 (racemic)', 7.56),
  ('CCCN1CCC(NCc2ccc(SC)cc2)C(NC(=O)CNC(=O)c2cc(C(F)(F)F)ccc2NC(=O)N2CCCC2)C1 (racemic)', 8.32),
  ('CSc1ccc(C(=O)NC2CCN(C)CC2NC(=O)CNC(=O)c2cc(C(F)(F)F)ccc2N)cc1 (racemic)', 7.41),
  ('CCCCN1CCC(NCc2ccc(SC)cc2)C(NC(=O)CNC(=O)c2cc(C(F)(F)F)ccc2N)C1 (racemic)', 7.72),
  ('CCCN1CCC(NC(=O)c2ccc(SC)cc2)C(NC(=O)CNC(=O)c2cc(N)cc(C(F)(F)F)c2)C1 (racemic)', 7.60);

[I] CCCN1CCC(NCc2ccc(SC)cc2)C(NC(=O)CNC(=O)c2cc(N)cc(C(F)(F)F)c2)C1 (racemic)
[II] CSc1ccc(CNC2CCNCC2NC(=O)CNC(=O)c2cc(C(F)(F)F)ccc2N)cc1 (racemic)
Prompt: Select one. Lower pIC50: I or II Answer = label.
Completion: II
(II: 6.55, I: 7.59)
